Source of measurements: patent US20260209249A1

# ASSAYED SYSTEM: GppNHp-KRAS G12D mutant protein (Homo sapiens, UniProt P01116, G12D)
# Construct: purchased Daegu Gyeongbuk Medical Innovation Foundation (DGMIF), made to order
# PROTOCOL: Differential scanning fluorimetry (DSF) binding affinity to GppNHp-KRAS G12D mutant protein
# CONDITION CONTEXT: DSF thermal shift, 10 μM compound, 4 μg KRAS protein, 50 mM HEPES (pH 7.5)
PROPERTY LABEL: GppNHp-KRAS G12D (ΔTmD, ° C.) (°C)
One number for each entry, in °C.

Below, 3 molecules whose answers are already recorded.
{"MOLECULE": "C#Cc1c(F)ccc2cc(O)cc(-c3c(F)c4nc(OC[C@]56CC(=C)CN5C[C@@H](F)C6)nc(N5C[C@H]6CC[C@@H](C5)N6)c4c4cn(C)nc34)c12 [Example 100]", "ASSAYED SYSTEM": "GppNHp-KRAS G12D mutant protein (Homo sapiens, UniProt P01116, G12D)", "GppNHp-KRAS G12D (ΔTmD, ° C.), °C": 8.92}
{"MOLECULE": "C#Cc1c(F)ccc2cc(O)cc(-c3c(F)c4nc(N5CC(N(C)C)C5)nc(N5C[C@H]6CC[C@@H](C5)N6)c4c4cn(C)nc34)c12 [Example 72]", "ASSAYED SYSTEM": "GppNHp-KRAS G12D mutant protein (Homo sapiens, UniProt P01116, G12D)", "GppNHp-KRAS G12D (ΔTmD, ° C.), °C": 0.00}
{"MOLECULE": "C#Cc1c(F)ccc2cc(O)cc(-c3c(F)c4nc(OCC5(CN6CC[C@@H](F)C6)CCC5)nc(N5C[C@H]6CC[C@@H](C5)N6)c4c4cn(C)nc34)c12 [Example 98]", "ASSAYED SYSTEM": "GppNHp-KRAS G12D mutant protein (Homo sapiens, UniProt P01116, G12D)", "GppNHp-KRAS G12D (ΔTmD, ° C.), °C": 5.79}

I'm hoping you can list GppNHp-KRAS G12D (ΔTmD, ° C.) for every molecule here, please.
1. C#Cc1c(F)ccc2cc(O)cc(-c3cc4nc(OC[C@@]56CCCN5C/C(=C\F)C6)nc(N5C[C@H]6CC[C@@H](C5)N6)c4c4cn(C)nc34)c12 [Example 75]
2. C#Cc1c(F)ccc2cc(O)cc(-c3cc4nc(OC[C@@]56CCCN5CC(=C(F)F)C6)nc(N5[C@@H]6CC[C@H]5CNC6)c4n4ccnc34)c12 [Example 106]

Reply:
1. 9.60
2. 6.65
